Values were extracted from patent US7850948B2.

# System: B16/F1 tumor-bearing C57BL6 mice
# assay info: Tissue concentration of radioiodinated benzamides in the C57BL6-B16/F1 mouse model (organ distribution and tumor accumulation)
# Type: in vivo
# test conditions: 24 hours after intravenous administration; n = 3
// reported Liver tissue concentration per item

Use these answered entries as a reference point.
CCN(CC)CCNC(=O)c1cc(I)c(NC(=O)c2ccccc2)cc1OC [BA91] ... 0.76 % Injected Dose (ID)/g of Tissue
CCN(CC)CCNC(=O)c1cc(I)c(NC(=O)c2ccc(Cl)cc2)cc1OC [BA93] ... 1.18 % Injected Dose (ID)/g of Tissue
CCN(CC)CCNC(=O)c1cc(I)c(NC(=O)c2ccc(OC)cc2)cc1OC [BA95] ... 0.75 % Injected Dose (ID)/g of Tissue

Hey, B16/F1 tumor-bearing C57BL6 mice data for CCN(CC)CCNC(=O)c1cc(I)c(NC(=O)c2ccc(F)cc2)cc1OC [BA100] : Liver tissue concentration came out at 0.76 % Injected Dose (ID)/g of Tissue

Hey, B16/F1 tumor-bearing C57BL6 mice data for CCN(CC)CCNC(=O)c1cc(I)c(NC(=O)c2ccc3c(c2)OCO3)cc1OC [BA52] : Liver tissue concentration came out at 0.49 % Injected Dose (ID)/g of Tissue
